pIC50: −log10 of the molar value.
Values of pIC50 for MERTK (Homo sapiens, UniProt Q12866), collected from a number of published sources:

[in] For the compound COC[C@H](C)Nc1ncc2c(-c3cnn(CC(=O)N4CCN(C)CC4)c3)cc([C@H]3CC[C@H](O)CC3)n2n1 , what pIC50 is on record?
[out] ≥ 7.00

[in] Now try COc1cc(C2CCN(C)CC2)ccc1Nc1ncc2c(n1)n1c(cc3ccccc31)c(=O)n2C .
[out] ≤ 5.30

[in] Now try COC[C@H](C)Nc1ncc2c(-c3ccnc(OC4CCCN(C)C4)c3)cc([C@H]3CC[C@H](O)CC3)n2n1 (some centres unmarked) .
[out] ≥ 7.00

[in] Now try CC(=O)N1CCN(Cc2ccc(-c3cc([C@H]4CC[C@H](O)CC4)n4nc(N[C@@H](C)COC(F)F)ncc34)cc2)CC1 .
[out] ≥ 7.00

[in] Now try CCCC(C)Nc1ncc2c(OC3CCN(CCC(=O)N(C)C)CC3)ncc([C@H]3CC[C@H](O)CC3)c2n1 (some centres unmarked) .
[out] ≥ 7.00

[in] Now try Cn1cc(-c2cnc(N)c(C(=O)N[C@@H]3CCN(C(=O)c4cccc(Br)c4)C3)c2)cn1 .
[out] < 6.00

[in] Now try CC(C)CC(C)Nc1ncc2c(=O)n(C3CCNCC3)cc([C@H]3CC[C@H](O)CC3)c2n1 (some centres unmarked) .
[out] ≥ 7.00

[in] Now try CCOc1ccn(-c2ccc(F)cc2)c(=O)c1C(=O)Nc1ccc(Oc2ccnc3cc(OCCCN4CCCCC4)c4c(c23)OCCO4)cc1Cl .
[out] ≥ 7.30

[in] Now try C[C@@H](CF)Nc1ncc2c(OC3CC(C)(C)N(C)C(C)(C)C3)ncc([C@H]3CC[C@H](O)CC3)c2n1 .
[out] ≥ 7.00

[in] Now try C[C@@H](CC(F)(F)F)Nc1ncc2c(OC3CCN([C@H]4CCOC4)CC3)ncc([C@H]3CC[C@H](O)CC3)c2n1 .
[out] ≥ 7.00

[in] Now try Cn1cc(-c2cnc(N)c(C(=O)N[C@@H]3CCN(C(=O)Nc4cc(Cl)cc(Cl)c4)C3)c2)cn1 .
[out] 6.00 to 7.00

[in] Now try CC[C@H](C)Nc1ncc2c(O[C@H]3CC[C@H](O)CC3)ncc([C@H]3CC[C@H](O)CC3)c2n1 .
[out] ≥ 7.00

[in] Now try COCC(C)Nc1ncc2c(-c3ccc(C(C)N4CCOCC4)cc3)cc(C3CCC(O)CC3)n2n1 (centres unmarked) .
[out] ≥ 7.00

[in] Now try Cn1cc(-c2cnc(N)c(C(=O)N[C@@H]3CCN(C(=O)c4ccc(OCc5cccc(N)c5)cc4)C3)c2)cn1 .
[out] 6.00 to 7.00

* * *

Values of pIC50 for UniProtKB Q12866, collected from a number of published sources:
pIC50: −log10 of the molar value.

[in] For the molecule Cn1cc(-c2cnc(N)c(C(=O)N[C@@H]3CCN(C(=S)Nc4ccc(Br)cc4)C3)c2)cn1 , what pIC50 is on record?
[out] < 6.00

[in] Now try Cn1cc(-c2cnc(N)c(C(=O)N[C@@H]3CCN(C(=O)c4ccc(-c5ccccc5F)cc4)C3)c2)cn1 .
[out] 7.00 to 8.00

[in] Now try COC[C@H](C)Nc1ncc2c(O[C@H]3C[C@H](C(=O)N4CCN(C)CC4)C3)ncc([C@H]3CC[C@H](O)CC3)c2n1 .
[out] ≥ 7.00

[in] Now try CCCC(C)Nc1ncc2c(=O)n(C3CCNCC3)cc([C@H]3CC[C@H](O)CC3)c2n1 (stereo partly shown) .
[out] ≥ 7.00

[in] Now try COC[C@H](C)Nc1ncc2c(OC3CCOCC3)ncc(-c3ccc(CO)cc3)c2n1 .
[out] ≥ 7.00

[in] Now try Cn1cc(-c2cnc(N)c(C(=O)N[C@@H]3CCN(C(=O)c4ccc(-c5ccc(Oc6ccccc6)cc5)cc4)C3)c2)cn1 .
[out] 6.00 to 7.00

[in] Now try COC[C@H](C)Nc1ncc2c([C@H]3CC[C@H](C(=O)N4CC5(COC5)C4)CC3)cc([C@H]3CC[C@H](O)CC3)n2n1 .
[out] ≥ 7.00

* * *

pIC50: −log10 of the molar value.
Values of pIC50 for MERTK (Homo sapiens), collected from a number of published sources:

[in] For the compound COC[C@H](C)N(C)c1ncc2c(-c3ccnc(C)c3)cc([C@H]3CC[C@H](OC)CC3)n2n1 , what pIC50 is on record?
[out] 5.00 to 6.00

[in] Now try COc1nc(Nc2ccc(CN3CCC(C)CC3)cc2)nc2[nH]cc(-c3ccc(NC(=O)c4cc(C)n(C)n4)cc3)c12 .
[out] < 6.00

[in] Now try COc1ccc2nccc(Oc3ccc(NC(=O)c4ccc(C)n(-c5ccc(F)cn5)c4=O)cc3F)c2n1 .
[out] ≥ 7.00

[in] Now try COC[C@H](C)Nc1ncc2c(-c3cnn(C[C@H]4CC(=O)N(C)C4)c3)cc([C@H]3CC[C@H](O)CC3)n2n1 .
[out] ≥ 7.00

* * *

Values of pIC50 for MERTK (Homo sapiens), collected from a number of published sources:
pIC50: −log10 of the molar value.

[in] For the molecule COC[C@H](C)Nc1ncc2c(-c3cnccc3C)cc([C@H]3CC[C@H](O)CC3)n2n1 , what pIC50 is on record?
[out] ≥ 7.00

[in] Now try CCCCC[C@H](C)Nc1ncc2c([C@H]3CC[C@@H](C(=O)N4CCS(=O)(=O)CC4)CC3)cc([C@H]3CC[C@H](O)CC3)n2n1 .
[out] ≥ 7.00

[in] Now try C[C@@H]1CCCN1C1(C)CCc2ccc(-c3cnc4[nH]nc(-c5ccc(S(=O)(=O)C6CC6)c(F)c5)c4c3)cc2CC1 (stereo partly drawn) .
[out] 6.00 to 7.00

[in] Now try CCC(C)Nc1ncc2c(C)cc(C3CCC(O)CC3)n2n1 (stereo not drawn) .
[out] ≥ 7.00

[in] Now try CN1CCN(c2cccc(-c3cccc(C(=O)N4CC[C@@H](NC(=O)c5cc(-c6cnn(C)c6)cnc5N)C4)c3)c2)CC1 .
[out] < 6.00

[in] Now try COC[C@H](C)Nc1ncc2c(-c3ccnc(N4CCO[C@H](C(C)(C)O)C4)c3)cc([C@H]3CC[C@H](O)CC3)n2n1 .
[out] ≥ 7.00

[in] Now try CC(=O)N1CCN(Cc2ccc(-c3cc(C4CCC(O)CC4)n4nc(NC(C)CC(F)(F)F)ncc34)cc2)CC1 (stereo not drawn) .
[out] ≥ 7.00

[in] Now try Cn1cc(-c2cnc(N)c(C(=O)N[C@@H]3CCN(C(=O)Oc4cccc(O)c4)C3)c2)cn1 .
[out] < 6.00

[in] Now try Cn1cc(-c2cnc(N)c(C(=O)N[C@@H]3CCN(C(=O)Oc4ccc(Cl)cc4N)C3)c2)cn1 .
[out] < 6.00

[in] Now try Cc1cc(-c2cc([C@H]3CC[C@H](O)CC3)n3nc(N[C@@H](C)COC(C)C)ncc23)ccn1 .
[out] ≥ 7.00

[in] Now try CCOCC(C)Nc1ncc2c(-c3ccc(CN4CCN(C)CC4)cc3)cc(C3CCC(O)CC3)n2n1 (stereo not drawn) .
[out] ≥ 7.00

[in] Now try CC(C)Cn1cc(-c2cnc(N)c(C(=O)N[C@@H]3CCN(Cc4ccccc4Cl)C3)c2)cn1 .
[out] 6.00 to 7.00

[in] Now try Cn1cc(-c2cnc(N)c(C(=O)N[C@@H]3CCN(C(=O)Oc4ccccc4O)C3)c2)cn1 .
[out] < 6.00

[in] Now try COC[C@H](C)Nc1ncc2c(-c3ccnc(NC4CCOC4)c3)cc([C@H]3CC[C@H](O)CC3)n2n1 (stereo partly drawn) .
[out] ≥ 7.00

[in] Now try Cn1cc(-c2cnc(N)c(C(=O)N[C@@H]3CCN(C(=O)c4ccc(C5=CCNCC5)cc4)C3)c2)cn1 .
[out] < 6.00

* * *

Values of IC50 for MERTK (Homo sapiens), collected from a number of published sources:

[in] So what IC50 did Cn1cc(-c2cnc(N)c(C(=O)N[C@@H]3CCN(C(=O)c4ccc(-c5ccc(Cl)cc5Cl)cc4)C3)c2)cn1 get with MERTK (Homo sapiens)?
[out] 10 to 100 nM

[in] Now try COC[C@H](C)Nc1ncc2c(-c3ccc(CC(=O)O)cc3)cc([C@H]3CC[C@H](O)CC3)n2n1 .
[out] ≤ 100 nM

[in] Now try Cn1cc(-c2cnc(N)c(C(=O)N[C@@H]3CCN(C(=O)c4ccc(/C=C/c5ccncc5)cc4)C3)c2)cn1 .
[out] 100 to 1000 nM

[in] Now try COCC[C@H](C)Nc1ncc2c(OC3CCOCC3)ncc([C@H]3CC[C@H](O)CC3)c2n1 .
[out] ≤ 100 nM

[in] Now try Cn1cc(-c2ccc(F)cc2)c(=O)c(C(=O)Nc2ccc(Oc3ccnc(N)c3Cl)cn2)n1 .
[out] 3 nM

[in] Now try CC[C@H](C)Nc1ncc2c(OC3CCN(C)CC3)ncc([C@H]3CC[C@H](O)CC3)c2n1 .
[out] ≤ 100 nM

[in] Now try CC(C)n1cc(C(=O)Nc2ccc(Oc3ccnc4cc(OCCCN5CCC(C)(N)CC5)c5c(c34)OCCO5)c(F)c2)c(=O)n(-c2ccc(F)cc2)c1=O .
[out] ≤ 50 nM
